Test: growth inhibitors of wild-type E. coli, primary screen, strain BW25113, expanded library, OD600 (AID 710);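 note: growth measured after 20 h incubation at 37 °C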
Conditions: OD600 absorbance, at 100 µM, stronger effect = higher value
Screen size: about 98,000 compounds; about 150 (0.15%) were called active. The sample as a whole holds a higher share of actives than the screen did.

molecule: O=C(NC(Nc1nc2ccc([N+](=O)[O-])cc2s1)(C(F)(F)F)C(F)(F)F)c1ccccc1
unit_abbrev: %
growth inhibition: 50
//
molecule: COc1ccc(C(=O)Nc2ccc(F)cc2F)cc1
unit_abbrev: %
growth inhibition: 10
//
molecule: Cc1cc(C)cc(OCC(=O)Nc2nc3ccc([N+](=O)[O-])cc3s2)c1
unit_abbrev: %
growth inhibition: -14
//
molecule: COC(=O)C(NC(=O)c1ccc(OC)cc1)(Nc1ncc(S(=O)(=O)c2ccc([N+](=O)[O-])cc2)s1)C(F)(F)F (stereo not given)
unit_abbrev: %
growth inhibition: -3
//
molecule: Cc1cc2c(cc1C)N(C(=O)CN1C(=O)c3ccccc3C1=O)C(C)(C)c1ssc(=S)c1-2
unit_abbrev: %
growth inhibition: -26
//
molecule: O=C(CN1CCSCC1)N/N=C/c1ccc(F)cc1
unit_abbrev: %
growth inhibition: 2
//
molecule: COc1ccc([N+](=O)[O-])cc1C1NN=C(c2cccc3ccccc23)S1 (stereo not given)
unit_abbrev: %
growth inhibition: 3
//
molecule: O=c1[nH]n(-c2cccc(Cl)c2)c2ncccc12
unit_abbrev: %
growth inhibition: -6
//
molecule: CN(Cc1nc2ccccc2c(=O)[nH]1)Cc1cc(=O)oc2ccc3ccccc3c12
unit_abbrev: %
growth inhibition: -4
//
molecule: CC1(C)Cc2nc3sc4c(SCC(=O)NC(c5ccccc5)c5ccccc5)ncnc4c3cc2CO1
unit_abbrev: %
growth inhibition: -10
